- Test system: Cloudman S91 mouse melanoma cell line
- Experiment description: Microscopic morphology (differentiation) of S91 cells
- Type: cell-based
- Applied conditions: 50 mM
Measured property: Morphology Flattened Cuboidal
Answer with the number, then the unit.

Some entries whose results are on file:
Exercise: Quick one: Morphology Flattened Cuboidal of CC(O)C(C)O (centres unmarked) ?
Solution: 75%

Exercise: For the compound "OCCCO" , what Morphology Flattened Cuboidal is on record?
Solution: 25%

Exercise: Record request: Morphology Flattened Cuboidal value, item CC(O)CO (centres unmarked)
Solution: 25%

Next:
Exercise: Look up Morphology Flattened Cuboidal: CC(O)CCO (centres unmarked)
Solution: 75%

Exercise: GET /values?readout=Morphology Flattened Cuboidal&item= C[C@H](O)CO [PG-S-1,2, (S)-(+)-1,2-Propanediol]
Solution: 25%

----------
Recorded Fold Induction of Tyrosinase Relative to Controls by entry
- Tested on: tyrosinase activity in S91 mouse melanoma cells
- Experiment description: Induction of tyrosinase activity in S91 cells
- Applied conditions: 2.5 mM (Table 19)
State the answer as a number, implicitly in X.

Below: 3 compounds and their reported Fold Induction of Tyrosinase Relative to Controls.
Exercise: Consider the compound shown here: CC1=C[C@H](O)[C@H]2C[C@@H]1C2(C)C (relative stereo) [(S)-cis-verbenol] What is its recorded Fold Induction of Tyrosinase Relative to Controls?
Solution: 15.5

Exercise: Would you kindly share the measured Fold Induction of Tyrosinase Relative to Controls for CC1(C)C2CC=C(CO)[C@@H]1C2 [(1R)-(−)-myrtenol, (1R)-2-pinen-10-ol] ?
Solution: 2.2

Exercise: What value of measured Fold Induction of Tyrosinase Relative to Controls is listed for CC1(C)[C@@H]2C[C@@H](O)[C@@](C)(O)[C@H]1C2 [(1S,2S,3R,5S)-(+)-pinanediol] ?
Solution: 68.4

New cases:
Exercise: # Fold Induction of Tyrosinase Relative to Controls lookup, item CC1(C)[C@@H]2C[C@H]1[C@@](C)(O)[C@@H](O)C2 (relative stereo) [2,3-cs/ex-PD]
Solution: 119

Exercise: Fold Induction of Tyrosinase Relative to Controls for CC1(C)C2CCC1(C)C(O)C2O (stereo not drawn) [2,3-cis/exo-bornanediol] ?
Solution: 101

----------
- Test system: Cloudman S91 mouse melanoma cell line
- Experiment description: Melanin content of S91 cells after treatment with test compound
- Assay type: cell-based
- Applied conditions: 50 mM
Measured property: ug Melanin (µg)
Supply the numeric figure in µg, leaving out any unit text.

# example entries with known answers
Exercise: Fill in: ug Melanin of C[C@H](O)CO [PG-S-1,2, (S)-(+)-1,2-Propanediol] is ___
Solution: 1.51

Exercise: Bench note: what ug Melanin did "OCCCO" show?
Solution: 1.31

Exercise: Please give the measured ug Melanin for this molecule: "OCC(O)CO"
Solution: 1.03

Exercise: What does the data say about its ug Melanin? Entry: CC(O)CCO (stereo not drawn)
Solution: 0.99

Exercise: Name the recorded ug Melanin for CC(O)C(C)O (stereo not drawn) .
Solution: 1.12

Continuing:
Exercise: Recorded ug Melanin for CC(O)CO (stereo not drawn) , please?
Solution: 1.31

Source: patent US7250157B2
